Assayed Target: 11b-HSD1 (Mus musculus)
Construct: endogenous in cells; host or cells: 3T3-L1 (ATCC-CL-173), differentiated into adipocytes
Sequence (P50172 whole entry): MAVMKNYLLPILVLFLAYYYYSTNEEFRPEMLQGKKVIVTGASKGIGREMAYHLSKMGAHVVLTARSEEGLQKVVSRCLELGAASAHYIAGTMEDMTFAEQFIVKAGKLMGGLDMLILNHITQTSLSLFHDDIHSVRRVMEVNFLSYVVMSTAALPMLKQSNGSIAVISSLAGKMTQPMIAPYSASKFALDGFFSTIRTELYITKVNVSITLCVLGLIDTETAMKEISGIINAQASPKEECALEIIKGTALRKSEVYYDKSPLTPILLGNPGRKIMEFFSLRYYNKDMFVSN
Protocol Notes: Cellular assay, 11b-HSD1 activity in differentiated 3T3-L1 cells
Type: cell-based
Study Conditions: 4 hour pre-incubation, pIC50 scored, read-out: [C2] HSD1 cellular 3T3-L1 Score
Measure Name: IC50

The examples below pair each entry with its known result.
* O=C1[C@@H]2CCc3ccccc3[C@@H]2CN1[C@H]1[C@@H]2CC3C[C@H]1C[C@](O)(C3)C2 [Compound 33] | < 1 µM
* O=C1N(C2C3CC4CC(C3)CC2C4)C[C@@H]2Cc3ccccc3CN12 (stereo partly shown) [Compound 11] | < 1 µM
* O=C1N(C2C3CC4CC(C3)CC2C4)C[C@H]2Cc3ccccc3CN12 (stereo partly shown) [Compound 5] | < 1 µM

Looking up O=C1[C@@H]2CCc3ccccc3[C@H]2CN1[C@H]1[C@@H]2CC3C[C@H]1C[C@](F)(C3)C2 [Compound 32] , I see its IC50 listed as < 1 µM

molecule O=C1[C@@H]2CCc3ccccc3[C@@H]2CN1CC12CC3CC(CC(C3)C1)C2 [Compound 16] , IC50 observed: < 1 µM

Entry under test: O=C1[C@@H]2Cc3ccccc3CN2CN1C1C2CC3CC(C2)CC1C3 (stereo partly shown) [Compound 12] . Its IC50 was 1 to 10 µM

molecule O=C1[C@H]2Cc3cnccc3C[C@H]2CN1[C@H]1[C@@H]2CC3C[C@H]1C[C@](O)(C3)C2 [Compound 34] , IC50 observed: 1 to 10 µM
